# System: CP262
# Assay info: qHTS profiling for inhibitors of Plasmodium falciparum proliferation (AID 504749); also: nearly all actives have a fitted effect of over 60% in size
# Details: P. falciparum in erythrocytes, SYBR Green DNA, 72 h; series mostly up to 12.8 µM
Results filed as inconclusive are left out. The source made the active and inactive calls. Calls follow the shape of the dose curve; as a rule, active = well fitted inhibition curve with a large enough effect; inconclusive = small, poorly fitted or top-dose-only effect; inactive = flat fitted curve, though single readings scatter.
Value kind: outcome

Some compounds with recorded outcome:
{"Compound": "CN1C(=O)C[C@H](c2ccccc2)C1=O", "outcome": "inactive"}
{"Compound": "Clc1ccc([C@H](Cn2ccnc2)OCc2csc3c(Cl)cccc23)c(Cl)c1", "outcome": "inactive"}
{"Compound": "CC(=O)OC1CCC2C3CCc4cc(O)ccc4C3CCC12C (configuration not stated)", "outcome": "inactive"}
{"Compound": "CC1(C)OC2CO[C@]3(COS(N)(=O)=O)OC(C)(C)OC3C2O1 (some centres not stated)", "outcome": "inactive"}
{"Compound": "NC(CCC(=O)N[C@@H](CS)C(=O)NCC(=O)O)C(=O)O (some centres not stated)", "outcome": "inactive"}
{"Compound": "CC(=O)OCC(=O)[C@@]12OC3(CCCC3)OC1CC1C3CCC4=CC(=O)C=C[C@@]4(C)[C@]3(F)C(O)C[C@]12C (some centres not stated)", "outcome": "inactive"}

Now for another entry.
For C[C@@H]1Cc2ccccc2N1NC(=O)c1ccc(Cl)c(S(N)=O)c1 (some centres not stated) the compound record lists outcome as inactive

----------
# System: 3D7
# Assay info: qHTS profiling for inhibitors of Plasmodium falciparum proliferation (AID 504749); also: nearly all actives have a fitted effect of over 60% in size
# Details: P. falciparum in erythrocytes, SYBR Green DNA, 72 h; series mostly up to 12.8 µM
Results filed as inconclusive are left out. The source made the active and inactive calls. Calls come from the whole dose curve; as a rule, active = well fitted inhibition curve with a large enough effect; inconclusive = small, poorly fitted or top-dose-only effect; inactive = flat fitted curve, though single readings scatter.
Value kind: outcome

{"Compound": "CNC[C@H](O)c1ccc(OC(=O)C(C)(C)C)c(OC(=O)C(C)(C)C)c1", "Observed value": "inactive"}
{"Compound": "CNC1CC(N)[C@H](O)[C@@H](O[C@@H]2OC(CO)C3OC4(OC(C(N)CO)C(O)C(O)C4O)O[C@@H]3[C@H]2O)C1O (stereo partly drawn)", "Observed value": "inactive"}
{"Compound": "O=C(O)[C@@H]1[C@@H]2C[C@H]3c4[nH]c5ccccc5c4CCN3C[C@@H]2CC[C@@H]1O", "Observed value": "inactive"}

----------
# Tested on: CP256
# Assay info: qHTS profiling for inhibitors of Plasmodium falciparum proliferation (AID 504749); also: nearly all actives have a fitted effect of over 60% in size
# Details: P. falciparum in erythrocytes, SYBR Green DNA, 72 h; series mostly up to 12.8 µM
Inconclusive results are not listed. Active and inactive are the calls of the source. Calls come from the whole dose curve; as a rule, active = well fitted inhibition curve with a large enough effect; inconclusive = small, poorly fitted or top-dose-only effect; inactive = flat fitted curve, though single readings scatter.
Answer with one of the outcomes given here: active, inactive

Below are worked cases with known answers.
{"Compound": "O=C1O[C@H](CN2CCOCC2)CN1/N=C\\c1ccc([N+](=O)[O-])o1", "Measurement target": "CP256", "Class assignment": "inactive"}
{"Compound": "CC1(C)[C@@H](OC(=O)CCC(=O)O)CC[C@@]2(C)[C@H]1CC[C@@]1(C)[C@H]2C(=O)C=C2[C@H]3C[C@](C)(C(=O)O)CC[C@]3(C)CC[C@@]21C", "Measurement target": "CP256", "Class assignment": "inactive"}
{"Compound": "O=C1OC(CO)C(O)C(O)C1O (stereo unspecified)", "Measurement target": "CP256", "Class assignment": "inactive"}
{"Compound": "COc1ccc(CC(N)C(=O)NC2C(CO)OC(n3cnc4c(N(C)C)ncnc43)C2O)cc1 (stereo unspecified)", "Measurement target": "CP256", "Class assignment": "active"}
{"Compound": "CC1(C)O[C@H]2C[C@@H]3[C@H]4CCC5=CC(=O)CC[C@@]5(C)[C@]4(F)[C@@H](O)C[C@@]3(C)[C@@]2(C(=O)CCl)O1", "Measurement target": "CP256", "Class assignment": "active"}
{"Compound": "OCC1OC([S-])[C@H](O)C(O)C1O.[Au+] (stereo partly specified)", "Measurement target": "CP256", "Class assignment": "inactive"}
{"Compound": "NCC1CCC(N)C(O[C@@H]2C(O)[C@H](O[C@H]3OC(CO)C(O)C(N)C3O)[C@@H](N)C[C@H]2N)O1 (stereo partly specified)", "Measurement target": "CP256", "Class assignment": "inactive"}
{"Compound": "CCN(CCCCOC(=O)c1ccc(OC)c(OC)c1)[C@@H](C)Cc1ccc(OC)cc1", "Measurement target": "CP256", "Class assignment": "inactive"}

QUERY: Which outcome was assigned to `CC[C@](C)(CN(C)C)OC(=O)c1ccccc1` in this test?
RESULT: inactive

QUERY: Which outcome was assigned to `CN(C)CCOC(=O)[C@@H](c1ccccc1)C1(O)CCCC1` in this test?
RESULT: inactive

QUERY: Which outcome was assigned to OCC1O[C@H](OC2C(CO)O[C@@](O)(CO)C2O)C(O)C(O)C1O (stereo partly specified) in this test?
RESULT: inactive

----------
# System: 7G8
# Assay info: qHTS profiling for inhibitors of Plasmodium falciparum proliferation (AID 504749); also: nearly all actives have a fitted effect of over 60% in size
# Details: P. falciparum in erythrocytes, SYBR Green DNA, 72 h; series mostly up to 12.8 µM
Inconclusive results are not listed. The source made the active and inactive calls. Calls follow the shape of the dose curve; as a rule, active = well fitted inhibition curve with a large enough effect; inconclusive = small, poorly fitted or top-dose-only effect; inactive = flat fitted curve, though single readings scatter.
Answer with one of the outcomes given here: active, inactive

Below are worked cases with known answers.
{"Compound": "C[C@@H]1O[C@H](O[C@@H]2\\C=C/C=C\\C=C/C=C\\C[C@H](C)OC(=O)/C=C\\[C@H]3O[C@@H]3C[C@H](O)C[C@]3(O)C[C@@H](O)[C@@H](C(=O)O)[C@H](C2)O3)[C@@H](O)[C@H](N)[C@@H]1O (stereo in doubt)", "Measurement target": "7G8", "Class assignment": "inactive"}
{"Compound": "COC(=O)C1=C(C)NC(C)=C(C(=O)OC(C)C)[C@H]1c1cccc2nonc12", "Measurement target": "7G8", "Class assignment": "active"}
{"Compound": "CCC(=O)O[C@@]1(C(=O)SCF)[C@@H](C)C[C@H]2[C@@H]3C[C@@H](F)C4=CC(=O)C=C[C@@]4(C)[C@]3(F)[C@@H](O)C[C@]21C", "Measurement target": "7G8", "Class assignment": "active"}

QUERY: Which outcome was assigned to `CN(C)CCn1nnnc1SCC1=C(C(=O)O)N2C(=O)[C@@H](NC(=O)Cc3csc(N)n3)[C@@H]2SC1` in this test?
RESULT: active

QUERY: Which outcome was assigned to `CCOC(=O)[C@H](CCc1ccccc1)N[C@@H](C)C(=O)N1[C@H](C(=O)O)C[C@H]2CCC[C@@H]21` in this test?
RESULT: inactive

QUERY: Which outcome was assigned to CC(=O)O[C@@]1(C(C)=O)CCC2C3CC(C)C4=CC(=O)CC[C@@]4(C)C3CC[C@]21C (stereo partly drawn) in this test?
RESULT: active

QUERY: Which outcome was assigned to `CC[C@H]1NC(=O)c2cc(S(N)(=O)=O)c(Cl)cc2N1` in this test?
RESULT: inactive

QUERY: Which outcome was assigned to `CCOC(=O)Oc1c(OC)cc(C(=O)O[C@H]2C[C@H]3CN4CCc5c([nH]c6cc(OC)ccc56)[C@@H]4C[C@H]3[C@@H](C(=O)OC)[C@@H]2OC)cc1OC` in this test?
RESULT: active

----------
# Assay info: qHTS Assay for Lipid Storage Modulators (AID 1519); also: % is scaled to controls: 0 for no effect and ±100 for the full control effect
# Details: Drosophila S3 cells, BODIPY lipid droplet/cell ratio, laser cytometry; at 57.5 µM (top of the series); cells loaded with oleic acid
Records with an inconclusive call do not appear.
Listing of recorded activity change, negative = inhibition by entry.
The figure you give is taken to be in %; do not add the unit.

{"Compound": "COC1OC2COC(c3ccccc3)OC2C(O)C1O (stereo unspecified)", "Observed value": 1.99}
{"Compound": "S=c1ccss1", "Observed value": 7.62}
{"Compound": "C#CCCCCCCCCCCCc1ccco1", "Observed value": 2.25}
{"Compound": "CO/N=C(\\C(=O)NC1C(=O)N2C(C(=O)OCOC(=O)C(C)(C)C)=C(/C=C\\c3scnc3C)CSC12)c1csc(N)n1 (stereo unspecified)", "Observed value": 12.3}
{"Compound": "N[C@H](CO)Cc1cnc[nH]1", "Observed value": 3.9}
{"Compound": "CC(=O)OC1CC(OC(C)=O)[C@]2(C)C(CC(=O)[C@]3(C)C2CC[C@@]2(C)C(C(=O)O)OC(=O)C4OC423)C1(C)C (stereo partly specified)", "Observed value": 3.41}

For CC(CN(C)C)CN1c2ccccc2Sc2ccccc21 (stereo unspecified) the compound record lists activity change, negative = inhibition as 6.07

For NCC1CCC(N)C(O[C@@H]2C(O)[C@H](O[C@H]3OC(CO)C(O)C(N)C3O)[C@@H](N)C[C@H]2N)O1 (stereo partly specified) the compound record lists activity change, negative = inhibition as 9.66

For O=C1OC(CO)C(O)C(O)C1O (stereo unspecified) the compound record lists activity change, negative = inhibition as 6.29

Origin of measurements: PubChem BioAssay (NCATS)
